# assay_overview: G protein-coupled receptor (GPCR) small molecule agonists, calcium flux assay: HEK293 wild type cell line counter screen (AID 1920065)
# cond: HEK293 WT calcium flux, fluorescence, agonist mode; series mostly up to 57.6 µM
The source made the active and inactive calls. Calls come from the whole dose curve.
result_type: activation

Some solved cases for reference:
molecule: CC=C(Cl)Cl
activation: inactive
--
molecule: C/C(=N\O)c1ccc(OCC(=O)N2CCCCC2)cc1
activation: inactive
--
molecule: CCO[Si](OCC)(OCC)OCC
activation: inactive
--
molecule: CCCCc1nc2cccnc2n1Cc1ccc(-c2ccccc2-c2nnn[nH]2)cc1
activation: inactive
--
molecule: Cc1cc(CC(=O)O)c(C)n1-c1ccc(Cl)cc1
activation: inactive
--
molecule: CCCCCCCCCCCc1ccccc1
activation: inactive

**Q:** I am curious: what activation value has been reported for C/C=C\C/C=C/CCCCCCCCOC(C)=O ?
**A:** inactive

**Q:** Input CN(C)CCOC1=Cc2ccccc2Sc2ccc(Cl)cc21
**A:** inactive

**Q:** Input Fc1ccc([C@@H]2CCNC[C@H]2COc2ccc3c(c2)OCO3)cc1
**A:** inactive

**Q:** Input CN(C)CCCCl
**A:** inactive

**Q:** Input COc1cc2c(cc1OC)C(=O)C(CC1CCN(Cc3ccccc3)CC1)C2 (stereo not drawn)
**A:** inactive
